test system: Brassica rapa subsp. oleifera; test: Herbicidal activity against Brassica rapa subsp. oleifera assessed as inhibition of fresh plant weight at 75 g/ha using postemergence protocol measured after 24 days under green house conditions; conditions: post-emergence
Decision: inhibition at 75 g/ha >= 60% yields y, all other cases yield n.

inhibition at 75 g/ha >= 60% for `Cc1cc(-c2cccc(C(F)(F)F)c2)c(Nc2cccc(C(F)(F)F)c2)nn1` ? n

---

Let's look at some compounds and their measured inhibition at 750 g/ha.
tested on: Echinochloa crus-galli; assay: Herbicidal activity against Echinochloa crus-galli (barnyard grass) assessed as inhibition of fresh plant weight at 750 g/ha using postemergence protocol measured after 24 days under green house conditions; settings: post-emergence
Dear colleague, please return just the value in %, with no unit written.

Some compounds with recorded inhibition at 750 g/ha:
>  <Compound>
Cc1cc(-c2cccc(C(F)(F)F)c2)c(Nc2ccccc2F)nn1

>  <Experimental system>
Echinochloa crus-galli

>  <Reported property>
inhibition at 750 g/ha

>  <Assay result>
21

$$$$
>  <Compound>
Cc1ccc(Nc2nnc(C)cc2-c2cccc(C(F)(F)F)c2)cc1

>  <Experimental system>
Echinochloa crus-galli

>  <Reported property>
inhibition at 750 g/ha

>  <Assay result>
2

$$$$
>  <Compound>
Cc1cc(-c2cccc(C(F)(F)F)c2)c(Nc2ccccc2)nn1

>  <Experimental system>
Echinochloa crus-galli

>  <Reported property>
inhibition at 750 g/ha

>  <Assay result>
15

$$$$
>  <Compound>
Cc1cc(-c2cccc(C(F)(F)F)c2)c(NCc2ccccc2F)nn1

>  <Experimental system>
Echinochloa crus-galli

>  <Reported property>
inhibition at 750 g/ha

>  <Assay result>
10

$$$$
>  <Compound>
Cc1cc(-c2cccc(C(F)(F)F)c2)c(Nc2cccc(C(F)(F)F)c2)nn1

>  <Experimental system>
Echinochloa crus-galli

>  <Reported property>
inhibition at 750 g/ha

>  <Assay result>
8

$$$$
>  <Compound>
Cc1cc(-c2cccc(C(F)(F)F)c2)c(Nc2ccc(Cl)cc2)nn1

>  <Experimental system>
Echinochloa crus-galli

>  <Reported property>
inhibition at 750 g/ha

>  <Assay result>
0

$$$$

Next item in the queue.
Which measured inhibition at 750 g/ha value corresponds to `Cc1cc(-c2cccc(C(F)(F)F)c2)c(Nc2cccc(Cl)c2)nn1` ? 7

---

test system: Amaranthus retroflexus; assay: Herbicidal activity against Amaranthus retroflexus assessed as inhibition of fresh plant weight at 150 g/ha using postemergence protocol measured after 24 days under green house conditions; details: post-emergence
Decision: inhibition at 150 g/ha >= 40% yields Satisfied, all other cases yield Not satisfied.

>  <Mol>
Cc1cc(-c2cccc(C(F)(F)F)c2)c(Nc2ccccc2F)nn1

>  <Qualitative label>
Satisfied

$$$$
>  <Mol>
Cc1cc(-c2cccc(C(F)(F)F)c2)c(Nc2ccc(F)cc2)nn1

>  <Qualitative label>
Satisfied

$$$$
>  <Mol>
Cc1ccc(Nc2nnc(C)cc2-c2cccc(C(F)(F)F)c2)cc1

>  <Qualitative label>
Not satisfied

$$$$
>  <Mol>
O=C(Nc1ccc(F)cc1F)c1cccnc1Oc1cccc(C(F)(F)F)c1

>  <Qualitative label>
Satisfied

$$$$
>  <Mol>
Cc1cc(-c2cccc(C(F)(F)F)c2)c(Nc2cccc(C(F)(F)F)c2)nn1

>  <Qualitative label>
Not satisfied

$$$$
>  <Mol>
Cc1cccc(Nc2nnc(C)cc2-c2cccc(C(F)(F)F)c2)c1

>  <Qualitative label>
Not satisfied

$$$$

Turning to the following compound.
inhibition at 150 g/ha >= 40% for `Cc1cc(-c2cccc(C(F)(F)F)c2)c(Nc2ccc(Cl)cc2)nn1` ? Satisfied

---

Let's look at some compounds and their measured inhibition at 750 g/ha.
system: Echinochloa crus-galli; assay: Herbicidal activity against Echinochloa crus-galli (barnyard grass) assessed as inhibition of fresh plant weight at 750 g/ha using postemergence protocol measured after 24 days under green house conditions; conditions: post-emergence
Dear colleague, please return just the value in %, with no unit written.

>  <Compound>
Cc1cc(-c2cccc(C(F)(F)F)c2)c(NC(C)c2ccc(Cl)cc2)nn1 (stereo not given)

>  <Experimental system>
Echinochloa crus-galli

>  <U>
%

>  <Assay result>
27

$$$$

Which measured inhibition at 750 g/ha value corresponds to `Cc1cc(-c2cccc(C(F)(F)F)c2)c(Nc2ccccc2C)nn1` ? 10

Which measured inhibition at 750 g/ha value corresponds to `Cc1cc(-c2cccc(C(F)(F)F)c2)c(Nc2cccc(Br)c2)nn1` ? 0

Which measured inhibition at 750 g/ha value corresponds to `Cc1cc(-c2cccc(C(F)(F)F)c2)c(NCc2ccc(Cl)cc2)nn1` ? 15

Which measured inhibition at 750 g/ha value corresponds to `Cc1cc(-c2cccc(C(F)(F)F)c2)c(Nc2ccc(Br)cc2)nn1` ? 13

Which measured inhibition at 750 g/ha value corresponds to `Cc1cc(-c2cccc(C(F)(F)F)c2)c(NCc2ccccc2Cl)nn1` ? 26

Which measured inhibition at 750 g/ha value corresponds to `O=C(Nc1ccc(F)cc1F)c1cccnc1Oc1cccc(C(F)(F)F)c1` ? 67

Which measured inhibition at 750 g/ha value corresponds to Cc1cc(-c2cccc(C(F)(F)F)c2)c(NC(C)c2ccccc2)nn1 (stereo not given) ? 43

Which measured inhibition at 750 g/ha value corresponds to `COc1ccc(Nc2nnc(C)cc2-c2cccc(C(F)(F)F)c2)cc1` ? 28

Which measured inhibition at 750 g/ha value corresponds to `Cc1cc(-c2cccc(C(F)(F)F)c2)c(NCCc2ccccc2)nn1` ? 13

---

system: Spirodela polyrhiza; assay: Inhibition of chlorophyll in Spirodela polyrhiza fronds at 1 ug/mL using light intensity of 45 uE/m2/s measured after 7 days; format: functional; conditions: 168 h
Reported property: inhibition at 1 µg/mL
# output: number + unit

Some compounds with recorded inhibition at 1 µg/mL:
>  <Compound>
Cc1cc(-c2cccc(C(F)(F)F)c2)c(NC(C)c2ccc(F)cc2)nn1 (stereo not given)

>  <inhibition at 1 µg/mL>
47%

$$$$
>  <Compound>
Cc1cc(-c2cccc(C(F)(F)F)c2)c(NC(C)c2ccc(Cl)cc2)nn1 (stereo not given)

>  <inhibition at 1 µg/mL>
15%

$$$$
>  <Compound>
Cc1ccc(Nc2nnc(C)cc2-c2cccc(C(F)(F)F)c2)cc1

>  <inhibition at 1 µg/mL>
95%

$$$$
>  <Compound>
Cc1cc(-c2cccc(C(F)(F)F)c2)c(NC(C)c2ccccc2)nn1 (stereo not given)

>  <inhibition at 1 µg/mL>
31%

$$$$
>  <Compound>
Cc1cc(-c2cccc(C(F)(F)F)c2)c(Nc2ccc(OC(F)(F)F)cc2)nn1

>  <inhibition at 1 µg/mL>
65%

$$$$
>  <Compound>
Cc1cc(-c2cccc(C(F)(F)F)c2)c(Nc2ccccc2F)nn1

>  <inhibition at 1 µg/mL>
100%

$$$$

Which measured inhibition at 1 µg/mL value corresponds to `Cc1cc(-c2cccc(C(F)(F)F)c2)c(NCc2ccc(Cl)cc2)nn1` ? 25%

Which measured inhibition at 1 µg/mL value corresponds to `Cc1cc(-c2cccc(C(F)(F)F)c2)c(Nc2ccc(F)cc2)nn1` ? 100%

Which measured inhibition at 1 µg/mL value corresponds to `Cc1cc(-c2cccc(C(F)(F)F)c2)c(NCc2ccccc2)nn1` ? 83%

Which measured inhibition at 1 µg/mL value corresponds to `Cc1cc(-c2cccc(C(F)(F)F)c2)c(NCc2ccccc2Cl)nn1` ? 73%

---

Let's look at some compounds and their measured inhibition at 1 µg/mL.
system: Spirodela polyrhiza; assay: Inhibition of chlorophyll in Spirodela polyrhiza fronds at 1 ug/mL using light intensity of 45 uE/m2/s measured after 7 days; type: functional; settings: 168 h
Dear colleague, please return just the value in %, with no unit written.

Some compounds with recorded inhibition at 1 µg/mL:
>  <Compound>
COc1ccc(CNc2nnc(C)cc2-c2cccc(C(F)(F)F)c2)cc1

>  <inhibition at 1 µg/mL, %>
51

$$$$
>  <Compound>
COc1ccccc1Nc1nnc(C)cc1-c1cccc(C(F)(F)F)c1

>  <inhibition at 1 µg/mL, %>
62

$$$$
>  <Compound>
Cc1cc(-c2cccc(C(F)(F)F)c2)c(Nc2cccc(C(F)(F)F)c2)nn1

>  <inhibition at 1 µg/mL, %>
100

$$$$
>  <Compound>
O=C(Nc1ccc(F)cc1F)c1cccnc1Oc1cccc(C(F)(F)F)c1 [DIFLUFENICAN]

>  <inhibition at 1 µg/mL, %>
90

$$$$
>  <Compound>
Cc1ccc(Nc2nnc(C)cc2-c2cccc(C(F)(F)F)c2)c(C)c1

>  <inhibition at 1 µg/mL, %>
69

$$$$
>  <Compound>
Cc1ccc(CNc2nnc(C)cc2-c2cccc(C(F)(F)F)c2)cc1

>  <inhibition at 1 µg/mL, %>
34

$$$$

Which measured inhibition at 1 µg/mL value corresponds to `Cc1cc(-c2cccc(C(F)(F)F)c2)c(NCc2ccccc2F)nn1` ? 77

Which measured inhibition at 1 µg/mL value corresponds to `Cc1cc(-c2cccc(C(F)(F)F)c2)c(Nc2ccccc2Cl)nn1` ? 82

Which measured inhibition at 1 µg/mL value corresponds to `Cc1cc(-c2cccc(C(F)(F)F)c2)c(Nc2ccc(Cl)cc2)nn1` ? 87

Which measured inhibition at 1 µg/mL value corresponds to `Cc1cc(-c2cccc(C(F)(F)F)c2)c(Nc2cccc(Cl)c2)nn1` ? 100

Which measured inhibition at 1 µg/mL value corresponds to `Cc1cc(-c2cccc(C(F)(F)F)c2)c(Nc2ccccc2C)nn1` ? 65

Which measured inhibition at 1 µg/mL value corresponds to `Cc1cc(-c2cccc(C(F)(F)F)c2)c(Nc2ccc(Br)cc2)nn1` ? 59

Which measured inhibition at 1 µg/mL value corresponds to `Cc1cc(-c2cccc(C(F)(F)F)c2)c(Nc2ccccc2)nn1` ? 100

Which measured inhibition at 1 µg/mL value corresponds to `Cc1cc(-c2cccc(C(F)(F)F)c2)c(Nc2cccc(Br)c2)nn1` ? 100

Which measured inhibition at 1 µg/mL value corresponds to `COc1ccc(Nc2nnc(C)cc2-c2cccc(C(F)(F)F)c2)cc1` ? 100

Which measured inhibition at 1 µg/mL value corresponds to `Cc1cccc(Nc2nnc(C)cc2-c2cccc(C(F)(F)F)c2)c1` ? 100

Which measured inhibition at 1 µg/mL value corresponds to `Cc1cc(-c2cccc(C(F)(F)F)c2)c(NCCc2ccccc2)nn1` ? 100
